Assay: Plasma and brain concentrations after single intraperitoneal administration of Compound 74
Assay type: in vivo, male C57BL/6 mice
Settings: male, C57BL/6, mouse, brain/plasma, IP 50 mg/kg, read-out: Brain Plama Ratio (Kp) range
Experimental endpoint: Kp at 0.5 h

Consider the compound shown here: Cc1cc(C2CC3(C2)CN(C(=O)c2cc(O)ccc2F)C3)n(-c2ccccc2C)n1 [Compound 74] What is its recorded Kp at 0.5 h?
0.06 to 0.08

====

Assay: Plasma and brain concentrations after single intraperitoneal administration of Compound 74
Assay type: in vivo, male C57BL/6 mice
Conditions: male, C57BL/6, mouse, brain, IP 50 mg/kg, read-out: Brain concentration range
Experimental endpoint: concentration at 0.5 h

Report concentration at 0.5 h for Cc1cc(C2CC3(C2)CN(C(=O)c2cc(O)ccc2F)C3)n(-c2ccccc2C)n1 please.
34 to 1250 ng/g

====

Target: UniProt:Q99685
Assay: MAGL inhibition potency assay with 4NPA substrate (methods of Table C)
Format: biochemical
Conditions: Method 14: Reaction Biology MAGL enzyme, 6 nM; read-out: Potency (MAGL inhibition)
Sequence (Q99685 2-303): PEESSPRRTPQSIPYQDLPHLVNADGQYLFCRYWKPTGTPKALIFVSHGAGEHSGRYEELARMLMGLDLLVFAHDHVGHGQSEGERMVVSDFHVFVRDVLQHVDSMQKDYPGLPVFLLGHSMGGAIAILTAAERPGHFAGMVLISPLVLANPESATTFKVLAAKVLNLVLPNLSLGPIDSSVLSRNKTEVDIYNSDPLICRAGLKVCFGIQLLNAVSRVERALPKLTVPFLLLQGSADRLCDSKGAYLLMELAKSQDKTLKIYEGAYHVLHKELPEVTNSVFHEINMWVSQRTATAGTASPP
pIC50: −log10 of the molar value.
Experimental endpoint: pIC50

Consider the molecule O=C(c1cc(O)ccc1F)N1CC2(CC(C(=O)N3CCCC3)C2)C1 and give its measured pIC50.
< 5.00

Look up pIC50: Cc1cc(C2CC3(C2)CN(C(=O)c2ccc4c(c2)OCC4)C3)n(-c2ccccc2C)n1
< 5.00

Quick one: pIC50 for O=C(c1cc(O)ccc1F)N1CC2(CC(C(=O)N3CCOCC3)C2)C1 ?
< 5.00

If you can, please state the reported pIC50 value of Cc1cc(C2CC3(C2)CN(C(=O)c2cccc4c2CCO4)C3)n(-c2ccccc2C)n1 .
< 5.00

Item under review: O=C(NCC1COC1)C1CC2(C1)CN(C(=O)c1cc(O)ccc1F)C2 . Reported pIC50?
< 5.00

====

Assay: Plasma and brain concentrations after single intraperitoneal administration of Compound 74
Assay type: in vivo, male C57BL/6 mice
Conditions: male, C57BL/6, mouse, brain, IP 5 mg/kg, read-out: Brain concentration range
Experimental endpoint: concentration at 0.5 h

Could you tell me which concentration at 0.5 h is on file for Cc1cc(C2CC3(C2)CN(C(=O)c2cc(O)ccc2F)C3)n(-c2ccccc2C)n1 [Compound 74] ?
16 to 19 ng/g

====

Test: Plasma and brain concentrations after single intraperitoneal administration of Compound 74
Assay type: in vivo, male C57BL/6 mice
Details: male, C57BL/6, mouse, plasma, IP 50 mg/kg, read-out: Plasma concentration range
Experimental endpoint: concentration at 0.5 h

Please give the measured concentration at 0.5 h for this compound: Cc1cc(C2CC3(C2)CN(C(=O)c2cc(O)ccc2F)C3)n(-c2ccccc2C)n1
447 to 14900 ng/mL

====

Task for the reader: assign each of the following compounds its reported A: degree to which MAGL enzymatic activity returned following washout.
Target: human MAGL (Homo sapiens (Human))
Experiment: MAGL reversible inhibition assay (washout)
Type: biochemical
Conditions: pre-washout compound concentration: 1 μM
Sequence (Q99685 whole entry): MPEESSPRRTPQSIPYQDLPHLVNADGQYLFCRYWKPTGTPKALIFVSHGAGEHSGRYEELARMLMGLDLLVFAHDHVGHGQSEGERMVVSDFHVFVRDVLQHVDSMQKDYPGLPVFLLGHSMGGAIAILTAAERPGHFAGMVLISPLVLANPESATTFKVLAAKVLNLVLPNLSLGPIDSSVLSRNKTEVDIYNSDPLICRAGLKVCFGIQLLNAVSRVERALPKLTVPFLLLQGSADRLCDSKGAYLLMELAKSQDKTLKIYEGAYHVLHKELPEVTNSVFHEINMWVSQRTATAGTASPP
Please reply with the value in numeric form only.

Using the record for Cc1cn(C2CC3(C2)CN(C(=O)c2cc(O)ccc2F)C3)nc1-c1cc(F)ccc1Cl [Compound 520] , report its A: degree to which MAGL enzymatic activity returned following washout.
100

Would you mind telling me what A: degree to which MAGL enzymatic activity returned following washout value was observed for O=C(c1cc(O)ccc1F)N1CC2(CC(n3cc(C4CC4)c(-c4ccccc4F)n3)C2)C1 [Compound 493] ?
47

Fill in the blank: the reported A: degree to which MAGL enzymatic activity returned following washout of Cc1cnn(C2CC3(C2)CN(C(=O)c2cc(O)ccc2F)C3)c1-c1cc(F)ccc1Cl [Compound 519] is ____.
155

Which A: degree to which MAGL enzymatic activity returned following washout is reported for this compound? O=C(c1cc(O)ccc1F)N1CC2(CC(n3cc(C(F)(F)F)c(-c4ccccc4F)n3)C2)C1 [Compound 473]
41

What measured A: degree to which MAGL enzymatic activity returned following washout goes with Cc1cc(C2CC3(C2)CN(C(=O)c2cc(O)ccc2F)C3)n(-c2ccccc2C)n1 [Compound 74] ?
162

====

Test: Plasma and brain concentrations after single intraperitoneal administration of Compound 74
Type: in vivo, male C57BL/6 mice
Details: male, C57BL/6, mouse, brain/plasma, IP 15 mg/kg, read-out: Brain Plama Ratio (Kp) range
Description: This experiment was performed to determine plasma pharmacokinetics and estimate 2-AG levels in male C57BL/6 mice brain following a single intraperitoneal administration of Compound-74 (Dose: 5, 15, 50 and 150 mg/kg). […] Analysis: Brain samples were processed for 2-AG estimation. 2-AG levels were the detected values. Plasma concentrations were determined by fit for purpose LC-MS/MS method. […]
Experimental endpoint: Kp at 0.5 h

I'd like to know its Kp at 0.5 h. The compound in question is Cc1cc(C2CC3(C2)CN(C(=O)c2cc(O)ccc2F)C3)n(-c2ccccc2C)n1
0.16 to 0.44

====

Target: human MAGL (Homo sapiens (Human), UniProt Q99685)
Assay: MAGL inhibition potency assay with 4NPA substrate (methods of Table C)
Type: biochemical
Conditions: Method 14: Reaction Biology MAGL enzyme, 6 nM; read-out: Potency (MAGL inhibition)
pIC50: −log10 of the molar value.
Experimental endpoint: pIC50

For human MAGL (Homo sapiens (Human), UniProt Q99685), provide pIC50 of Cc1cc(C2CC3(C2)CN(C(=O)c2cc4c(cc2F)CCO4)C3)n(-c2ccccc2C)n1 [Compound 368] please.
< 5.00

Notebook: pull reported pIC50 for human MAGL (Homo sapiens (Human), UniProt Q99685), entry O=C(c1cc(O)ccc1F)N1CC2(CC(C(=O)N3CCC4(COC4)C3)C2)C1 [Compound 391]
< 5.00

Missing value: pIC50, human MAGL (Homo sapiens (Human), UniProt Q99685), entry O=C(c1cc(O)ccc1F)N1CC2(CC(C(=O)N3CCC4(CCCO4)C3)C2)C1 (stereo not drawn) [Compound 400] . Fill in?
< 5.00

====

Assay: Plasma and brain concentrations after single intraperitoneal administration of Compound 74
Format: in vivo, male C57BL/6 mice
Settings: male, C57BL/6, mouse, plasma, IP 150 mg/kg, read-out: Plasma concentration range
Experimental endpoint: concentration at 0.5 h

Given the molecule Cc1cc(C2CC3(C2)CN(C(=O)c2cc(O)ccc2F)C3)n(-c2ccccc2C)n1 , what is its reported concentration at 0.5 h?
34.9 to 70.3 µg/mL

====

Target: human MAGL (Homo sapiens (Human), UniProt Q99685)
Experiment: MAGL inhibition potency assay with 4NPA substrate (methods of Table C)
Assay type: biochemical
Conditions: Method 12: Reaction Biology MAGL enzyme, 15 nM; read-out: Potency (MAGL inhibition)
Could you please report measured IC50 for the items listed next?

I'd like to know its IC50. The compound in question is Cc1cn(C2CC3(C2)CN(C(=O)c2cc(O)ccc2C(F)(F)F)C3)nc1-c1ccccc1F [Compound 495]
> 10 µM

Query (compound): Cc1cnn(C2CC3(C2)CN(C(=O)c2cc(O)ccc2F)C3)c1-c1ccccc1F [Compound 494] ; field requested: IC50
> 10 µM

// IC50 lookup, key: O=C(c1c(F)cccc1OC1CC1)N1CC2(CC(n3ncc(C(F)(F)F)c3-c3ccccc3F)C2)C1 [Compound 521]
> 10 µM

====

Assay: Plasma and brain concentrations after single intraperitoneal administration of Compound 74
Format: in vivo, male C57BL/6 mice
Details: male, C57BL/6, mouse, brain, IP 15 mg/kg, read-out: Brain concentration range
Experimental endpoint: concentration at 0.5 h

Please look up its concentration at 0.5 h: Cc1cc(C2CC3(C2)CN(C(=O)c2cc(O)ccc2F)C3)n(-c2ccccc2C)n1
25 to 67 ng/g

====

Assay: Plasma and brain concentrations after single intraperitoneal administration of Compound 74
Format: in vivo, male C57BL/6 mice
Conditions: male, C57BL/6, mouse, brain, IP 150 mg/kg, read-out: Brain concentration range
Experimental endpoint: concentration at 0.5 h

Name the recorded concentration at 0.5 h for Cc1cc(C2CC3(C2)CN(C(=O)c2cc(O)ccc2F)C3)n(-c2ccccc2C)n1 .
2410 to 12100 ng/g

====

Molecular target: human MAGL (Homo sapiens (Human))
Experiment: MAGL inhibition potency assay with 4NPA substrate (methods of Table C)
Format: biochemical
Details: Method 5: Cayman Chemical MAGL enzyme, 25 nM; read-out: MAGL Potency (Detection Method)
Experimental endpoint: IC50

If you can, please state the reported IC50 value of Cc1cc(C2CC3(C2)CN(C(=O)c2cc(O)ccc2F)C3)n(-c2ccccc2C)n1 .
< 50 nM

For Cc1cc(C2CC3(C2)CN(C(=O)c2ccc(F)cc2OCC(F)(F)F)C3)n(-c2ccccc2C)n1 , what is its reported IC50?
< 50 nM

====

Assay: Plasma and brain concentrations after single intraperitoneal administration of Compound 473
Type: in vivo, male C57BL/6 mice
Conditions: male, C57BL/6, mouse, IP 20 mg/kg, read-out: Brain/Plasma Ratio (kp) (mean)
Experimental endpoint: Kp at 0.5 h
Respond with the number and no other words.

What value of Kp at 0.5 h has been reported for the following molecule? O=C(c1cc(O)ccc1F)N1CC2(CC(n3cc(C(F)(F)F)c(-c4ccccc4F)n3)C2)C1
1.44
